# assay_remarks: P-glycoprotein substrates identified in KB-8-5-11 adenocarcinoma cell line, qHTS therapeutic library screen (AID 1346987); note: nearly all actives have a fitted effect of over 65% in size
# test_context: KB-8-5-11 (P-gp overexpressing) viability, CellTiter-Glo, 72 h; series mostly up to 44.5 µM
Inconclusive results are not listed. Calls of active or inactive are those of the source. Calls come from the whole dose curve; as a rule, active = well fitted inhibition curve with a large enough effect; inconclusive = small, poorly fitted or top-dose-only effect; inactive = flat fitted curve, though single readings scatter.
Thanks in advance; please answer with one of these: yes (1) = active, no (0) = inactive

stdin: How did this test come out for OCc1ccc(O[C@@H]2O[C@H](CO)[C@@H](O)[C@H](O)[C@H]2O)cc1 ?
stdout: no (0)

stdin: For CC(=O)/C=C/[C@H]1[C@](C)(O)[C@@H](O)[C@H](OC(C)=O)C2C(C)(C)CCC[C@@]21C (some centres not stated) , what call appears in the results of this test?
stdout: no (0)

stdin: Answer briefly: the call reported for CCNC(=O)Nc1ncc(-c2cc(-c3c(C)cc(OC)cc3C)nc(-c3cnccn3)n2)s1 in this assay.
stdout: no (0)

stdin: Hey, what did the test say about O=C(/C=C\n1cnc(-c2cc(C(F)(F)F)cc(C(F)(F)F)c2)n1)N1CC(F)(F)C1 ?
stdout: yes (1)

stdin: Test call, this compound: O=C(O)c1cc(-c2c(-c3ccccc3)nn3ccccc23)n[nH]c1=O
stdout: no (0)

stdin: Look up the recorded call for CC(=O)CCC1=C(C)C(O[C@@H]2O[C@H](CO)[C@@H](O)[C@H](O)[C@H]2O)C(O)CC1(C)C (some centres not stated) in this test.
stdout: no (0)

stdin: GET /call?item= CC/C=C\CCO[C@@H]1O[C@H](CO)[C@@H](O)[C@H](O)[C@H]1O returns the recorded outcome of this test.
stdout: no (0)

stdin: Lab log entry: Fc1ccc2nc(CCC#Cc3ccccn3)cn2c1 — outcome as called in the assay?
stdout: no (0)

stdin: What was the test verdict on CCS(=O)(=O)N1CCN(c2ccc(Nc3ncc(C(N)=O)c(NC4CC4)n3)cc2)CC1 ?
stdout: yes (1)

stdin: // param item: CC(=O)CC1CCC(C(C)C(=O)OCC(O)CO)O1 (configuration not stated) ; yields the recorded call
stdout: no (0)

stdin: Please indicate how the test categorized CNS(=O)(=O)CC1CCC(N(C)c2ncnc3[nH]ccc23)CC1 (configuration not stated) .
stdout: no (0)

stdin: State the result this test recorded for C[C@]12C[C@@H](O)[C@@H]3C[C@@]1(O[C@@H]1O[C@H](CO)[C@@H](O)[C@H](O)[C@H]1O)[C@]3(COC(=O)c1ccccc1)C(=O)O2 .
stdout: no (0)

stdin: How was CC(C)C(N)C(=O)OCCOCn1cnc2c(=O)[nH]c(N)nc21 (configuration not stated) classified in this test?
stdout: no (0)

stdin: For c1ccc(-c2ncc(CN3CCN(c4ncccn4)CC3)[nH]2)cc1 , which call appears in the assay record?
stdout: no (0)

stdin: Lab log entry: CC[C@]12C=CCN3CC[C@@]4(c5cc([C@@]6(C(=O)OC)C[C@H]7C[C@@H](C(C)(F)F)CN(Cc8c6[nH]c6ccccc86)C7)c(OC)cc5N(C)[C@H]4[C@@](O)(C(=O)OC)[C@@H]1OC(C)=O)[C@@H]32 — outcome as called in the assay?
stdout: yes (1)

stdin: Hi, do you know how CC(C)(C#N)c1ccc(N2C(=O)OCc3cnc4ccc(-c5cnc6ccccc6c5)cc4c32)cc1 came out in this test?
stdout: yes (1)

stdin: Any idea what this test logged for CCN1CCN(Cc2ccc(NC(=O)Nc3ccc(Oc4cc(NC)ncn4)cc3)cc2C(F)(F)F)CC1 ?
stdout: no (0)

stdin: Called result for CC[C@H]1OC(=O)[C@](C)(F)C(=O)[C@H](C)[C@@H](O[C@@H]2O[C@H](C)C[C@H](N(C)C)[C@H]2O)[C@](C)(OC)C[C@@H](C)C(=O)[C@@H](C)[C@H]2N(CCCCn3cc(-c4cccc(N)c4)nn3)C(=O)O[C@]12C
stdout: no (0)

stdin: What classification did C[C@@H]1C(=O)O[C@H]2[C@H](O)C34[C@H]5C[C@@H](C(C)(C)C)C36[C@@H](OC(=O)[C@@H]6O)O[C@@]4(C(=O)O5)[C@@]12O (some centres not stated) end up with in this test?
stdout: no (0)

stdin: Short answer needed: outcome of this test for C/C1=C\[C@H]2OC(=O)[C@@H](C)[C@@H]2CC/C(C(=O)O)=C/CC1 ?
stdout: no (0)

stdin: Dear colleague, could you share the recorded outcome for CC(=O)O[C@H]1C(=O)[C@@]2(C)[C@H]([C@H](OC(=O)c3ccccc3)[C@]3(O)C[C@H](OC(=O)[C@H](O)[C@@H](NC(=O)c4ccccc4)c4ccccc4)C(C)=C1C3(C)C)[C@]1(OC(C)=O)CO[C@@H]1C[C@@H]2O when you have a moment?
stdout: yes (1)

stdin: Please let me know the test result on file for C[C@@H]1C(=O)O[C@H](C)[C@H]1CC(=O)[C@](C)(O)[C@H]1CC[C@@]2(O)C3=CC(=O)[C@@H]4C[C@@H](O)[C@@H](O)C[C@]4(C)C3CC[C@]12C (some centres not stated) .
stdout: no (0)

stdin: What was the test verdict on CC(C)(C)OC(=O)N1CCC(OCc2nc(-c3ccncc3)no2)CC1 ?
stdout: no (0)

stdin: For O=C(O[C@H]1[C@@H]2C=CO[C@@H](O[C@@H]3O[C@H](CO)[C@@H](O)[C@H](O)[C@H]3O)[C@@H]2[C@@]2(CO)O[C@@H]12)c1ccccc1 , which call appears in the assay record?
stdout: no (0)

stdin: Hi, do you know how CC1=CC(=O)C2C(C)(C)CCC[C@]2(C)[C@H]1CO (some centres not stated) came out in this test?
stdout: no (0)

stdin: Answer briefly: the call reported for CCCC1(c2ccccc2)NC(=O)N(CC(=O)N(C)Cc2c(F)cccc2Cl)C1=O (configuration not stated) in this assay.
stdout: no (0)

stdin: # fetch the recorded call for COc1ccc2nc(S(=O)(=O)Cc3ncc(C)c(OC)c3C)[nH]c2c1 here
stdout: no (0)

stdin: Just curious, what result did C=C[C@]1(C)C=C2CCC3C(C)(CCC[C@@]3(C)C(=O)O)C2CC1 (some centres not stated) get here?
stdout: no (0)

stdin: Hello, I am checking results. What call was entered for COC(=O)C1(C)CCC2(C(=O)O)CCC3(C)C(=CCC4C5(C)CC(O)C(OC6OCC(O)C(O)C6O)C(C)(CO)C5CCC43C)C2C1 (configuration not stated) ?
stdout: no (0)

stdin: Hi, sorry to bother you, what did the test record for CCCn1c(=O)c2[nH]c(-c3ccc(OCC(=O)O)cc3)nc2n(CCC)c1=O ?
stdout: no (0)

stdin: Call for entry CC(=O)OC1C(O)C2C(C)C3=CC(=O)OC3(O)CC2C2(C)CCCC(C)(CO)C12 (configuration not stated) :
stdout: no (0)

stdin: Could you please tell me the result logged for COCCN1CCN(Cc2ccc(-c3n[nH]c4c3C(=O)c3c(NC(=O)NN5CCOCC5)cccc3-4)cc2)CC1 in this assay?
stdout: yes (1)
